The values you see were collected from ChEMBL document CHEMBL1157362.

assay: Oral bioavailability in rhesus monkey at 33.3 mg/kg; format: ADME, organism-based, Macaca mulatta; conditions: in vivo
PROPERTY: bioavailability (%)

>>> value("Cc1cn([C@H]2CO[C@@H](CO)O2)c(=O)[nH]c1=O")
95

* * *

assay: Mean residence time in rhesus monkey at 33.3 mg/kg, po; assay type: ADME, organism-based, Macaca mulatta; design: dose 33.3 mg/kg, route oral; details: in vivo
PROPERTY: MRT (h)

>>> value("Cc1cn([C@H]2CO[C@@H](CO)O2)c(=O)[nH]c1=O")
3.26

* * *

assay: Drug level in rhesus monkey cerebrospinal fluid at 33.3 mg/kg, po after 2 hrs; type: ADME, organism-based, Macaca mulatta; set-up: dose 33.3 mg/kg, route oral; settings: read-out: Drug uptake
PROPERTY: concentration at 2 h (µM)

>>> value("Cc1cn([C@H]2CO[C@@H](CO)O2)c(=O)[nH]c1=O")
4.2
